- Target Under Test: Cathepsin K (Homo sapiens) (UniProt P43235)
Readout: pKi
pKi is defined as minus the log10 of a concentration measured in mol/L.

CC(C)(C)OC(=O)NN(C#N)CC(=O)N1CCOCC1	10.96
CN(C(=O)OC(C)(C)C)N(C#N)CC(=O)N1CCOCC1	7.51
CC(C)(C)OC(=O)NN(C#N)CC(=O)N(Cc1ccccc1)Cc1ccccc1	11.84

# lookup: pKi of `CN(Cc1ccccc1)C(=O)CN(C#N)NC(=O)OC(C)(C)C`
11.38
